Recorded MIC K. pneumoniae CI 138-16357-20362, PmxR for the following molecules
Test system: K. pneumoniae CI 138-16357-20362, PmxR
measurement_notes: microbe, parasite or virus in culture
Assay type: cell-based, Klebsiella pneumoniae
condition_set: carbapenem & polymyxin resistant clinical isolate; MHB, 5 × 10^5 CFU/mL, 18 h at 37 °C
Bridge positions count the residues as written; N and C are the ends. Square brackets hold non-standard residues; d marks the D form. Peptide text beside a SMILES is read from it. * marks the point of attachment. Octanoyl = CCCCCCCC(=O)*; Dab = NCC[C@H](N)C(=O)O

- CCCCCCCC(=O)N[C@@H](CCN)C(=O)N[C@H](C(=O)N[C@@H](CCN)C(=O)N[C@H]1CCNC(=O)[C@H]([C@@H](C)O)NC(=O)[C@H](CCN)NC(=O)[C@H](CCN)NC(=O)[C@H](CC(C)C)NC(=O)[C@@H](Cc2ccccc2)NC(=O)[C@H](CCN)NC1=O)[C@@H](C)O [Compound 11, polymyxin B3] (Octanoyl-[Dab]T[Dab][Dab][Dab][dF]L[Dab][Dab]T; lactam 4-C): >128 µg/mL

# evaluate next
In: May I ask what MIC K. pneumoniae CI 138-16357-20362, PmxR has been recorded for CCCCCCCC(=O)N[C@H](C(=O)NCC(=O)N[C@H]1CCNC(=O)[C@H]([C@@H](C)O)NC(=O)[C@H](CCN)NC(=O)[C@H](CCN)NC(=O)[C@H](CC(C)C)NC(=O)[C@@H](Cc2ccccc2)NC(=O)[C@H](CCN)NC1=O)[C@@H](C)O [Compound 39] (Octanoyl-TG[Dab][Dab][dF]L[Dab][Dab]T; lactam 3-C) ?
Out: >32 µg/mL

###

System: HepG2
condition_set: CC50 HepG2 (µM)
Bridge positions count the residues as written; N and C are the ends. Square brackets hold non-standard residues; d marks the D form. Peptide text beside a SMILES is read from it. * marks the point of attachment. Phe(4-NH2) = Nc1ccc(C[C@H](N)C(=O)O)cc1; Octanoyl = CCCCCCCC(=O)*; Dab = NCC[C@H](N)C(=O)O
assay_endpoint: CC50

- CCCCCCCC(=O)N[C@@H](CCN)C(=O)N[C@H](C(=O)N[C@@H](CCN)C(=O)N[C@H]1CCNC(=O)[C@H]([C@@H](C)O)NC(=O)[C@H](CCN)NC(=O)[C@H](CCN)NC(=O)[C@H](CC(C)C)NC(=O)[C@@H](Cc2ccccc2)NC(=O)[C@H](Cc2ccc(N)cc2)NC1=O)[C@@H](C)O [Compound 34] (Octanoyl-[Dab]T[Dab][Dab][Phe(4-NH2)][dF]L[Dab][Dab]T; lactam 4-C): > 300 µM

In: Give the measured CC50 of CCCCCCCC(=O)N[C@@H](CCN)C(=O)N[C@H](C(=O)N[C@@H](CCN)C(=O)N[C@H]1CCNC(=O)[C@H]([C@@H](C)O)NC(=O)[C@H](CCN)NC(=O)[C@H](CCN)NC(=O)[C@H](CC(C)C)NC(=O)[C@@H](Cc2ccccc2)NC(=O)[C@H](CCN)NC1=O)[C@@H](C)O [Compound 11, polymyxin B3] (Octanoyl-[Dab]T[Dab][Dab][Dab][dF]L[Dab][Dab]T; lactam 4-C) .
Out: > 300 µM

In: Please answer likewise for CCCCCCCC(=O)N[C@@H](CCN)C(=O)N[C@H](C(=O)N[C@H](CO)C(=O)N[C@H]1CCNC(=O)[C@H]([C@@H](C)O)NC(=O)[C@H](CCN)NC(=O)[C@H](CCN)NC(=O)[C@H](CC(C)C)NC(=O)[C@@H](Cc2ccccc2)NC(=O)[C@H](CCN)NC1=O)[C@@H](C)O [Compound 37] (Octanoyl-[Dab]T[dS][Dab][Dab][dF]L[Dab][Dab]T; lactam 4-C)
Out: > 300 µM
